# System: SK-OV-3 ovarian
# TEST_DETAILS: NCI-60 one-dose screen, 48 h (100 = growth as untreated, 0 = no growth, -100 = all killed)
# REPORTED_CONDITIONS: 10 µM unless noted
About 83,000 compounds went through this panel and 20% of them were active in at least one assay; those are over-represented in the sample as a whole.
PROPERTY_NAME: growth (%)
Value expressed in %; do not type the unit.

Here is how some compounds turned out for growth.
{"COMPOUND": "O=C1NC(=O)C(c2ccc(Cl)cc2Cl)N1 (stereo not drawn)", "growth / %": 108}
{"COMPOUND": "CN1CCN(Cc2ccc(NC(=O)c3cncc(C#Cc4cncn5ccnc45)c3)cc2C(F)(F)F)CC1", "growth / %": 88.9}
{"COMPOUND": "Cn1c(=O)c2c(nc3n(-c4ccc(Cl)cc4Cl)c(Sc4nc(-c5ccccc5)c(C#N)c(=O)[nH]4)cn23)n(C)c1=O", "growth / %": 39.7}
{"COMPOUND": "CC[C@H]1OC(=O)[C@H](C)[C@@H](O[C@H]2C[C@@](C)(OC)[C@@H](O)[C@H](C)O2)[C@H](C)[C@@H](O[C@@H]2O[C@H](C)C[C@H](N(C)C)[C@H]2O)[C@](C)(O)C[C@H](C)CN(C)[C@H](C)[C@@H](O)[C@]1(C)O", "growth / %": 97.4}
{"COMPOUND": "O=C(O)c1c(=O)cccc2ssc12", "growth / %": 39.1}

IN: growth lookup needed for COc1ccc(-c2n[nH]nc2-c2csc3ccccc23)cc1OC , thanks.
OUT: 14.2

IN: growth lookup needed for Cc1ccc(-c2onc3c(=O)[nH]nc(-c4ccccc4)c23)cc1 , thanks.
OUT: 14.9

IN: growth lookup needed for CC(C)C[C@@H](NC(=O)[C@@H](Cc1ccccc1)NC(=O)c1cnccn1)B1Oc2ccc(C[C@H](NC(=O)[C@H](Cc3ccc4c(c3)OB([C@@H](CC(C)C)NC(=O)[C@@H](Cc3ccccc3)NC(=O)c3cnccn3)O4)NC(=O)[C@@H](N)CC3CCC4OB([C@@H](CC(C)C)NC(=O)[C@@H](CC5CCCCC5)NC(=O)C5CNCCN5)OC4C3)C(=O)NCCCC[C@@H]3NC(=O)[C@@H](Cc4ccccc4)NC(=O)[C@H](CC(=O)O)NC(=O)CNC(=O)[C@H](CCCNC(=N)N)NC3=O)cc2O1 (stereo partly drawn) , thanks.
OUT: -30

---

# Test system: MALME-3M melanoma
# TEST_DETAILS: NCI-60 one-dose screen, 48 h (100 = growth as untreated, 0 = no growth, -100 = all killed)
# REPORTED_CONDITIONS: 10 µM unless noted
Compounds without any hit were thinned out: in the full panel of roughly 83,000, 20% have a hit.
PROPERTY_NAME: growth (%)
Value expressed in %; do not type the unit.

Here is how some compounds turned out for growth.
{"ENTRY_SMILES": "Nc1ccn(-c2ccc(Br)cc2)c(=O)n1", "growth (%)": 124}
{"ENTRY_SMILES": "O=C(COc1cccc(/C=C2\\COc3ccc(Cl)cc3C2=O)c1)c1ccc(Cl)cc1", "growth (%)": 77.5}
{"ENTRY_SMILES": "O=C1C=C(OCC=C(Cl)Cl)C(=O)c2ccccc21", "growth (%)": 80.9}
{"ENTRY_SMILES": "COc1cc(/C=C/c2cc(/C=C/c3ccc(O)c(OC)c3)n(-c3c(C)cccc3C)c(=O)n2)ccc1O", "growth (%)": -14}
{"ENTRY_SMILES": "FC(F)(F)c1ccc(-c2cn3nc(-c4c[nH]c5ccc(Br)cc45)sc3n2)cc1", "growth (%)": 90.4}

Let's switch to this compound now.
IN: growth lookup needed for COc1ccc2nc(NC(=O)CSc3nnc4n3S(=O)(=O)c3ccccc3N4c3ccccc3)sc2c1 , thanks.
OUT: 89.7

This collection of values is drawn from PubChem BioAssay (NCI).
